Test: Pharmacokinetics study after IV and PO administration to SD rats
Assay type: in vivo
Conditions: Sprague-Dawley, rat, plasma, iv, 2 mg/kg, IV 2 mg/kg, 24 h; individual animals 101, 102, 103; read-out: Individual plasma concentration
measured property: concentration at 24 h (ng/mL)

> print(dat)
                           smiles.structure      measured.property  value.measured
1  COc1cc(OC)c(Cl)c(-c2ccc3c(/C=C/c4ccc(N(C)C(=O)CN5CCN(C)CC5)cc4)n[nH]c3c2)c1Cl  concentration at 24 h            2.27

* * *

Assay: Pharmacokinetics study after IV and PO administration to SD rats
Assay type: in vivo
Details: rat, plasma, po; SD rats, p.o. 20 mg·kg^−1
measured property: Cmax (ng/mL)

> print(dat)
                                   compound  measurement.unit  value.measured
1  COc1cc(OC)c(Cl)c(-c2ccc3c(/C=C/c4ccc(N(C)C(=O)CN5CCN(C)CC5)cc4)n[nH]c3c2)c1Cl [YTH‐60]             ng/mL            95.8
